Measured values drawn from ChEMBL document CHEMBL4689842 for this set.

Parameter: Population Fragmented Nuclei (%). Scope: all listed entries.
# Test system: HEK-293T
# ASSAY: Multiplex assay against HEK293T
# Type: toxicity, cell-based
# RUN_CONDITIONS: human, 48 h, 1 µM, compound concentration 1 uM, replicate 2
Express the result in % but write the number alone.

Some molecules with recorded Population Fragmented Nuclei (%):
Nc1ccc(C(=O)Nc2cccc(-c3nc(N4CCOCC4)c4oc5ncccc5c4n3)c2)cn1
6
Cc1cc2c(cc1N1C(=O)c3cccc4c(CCCO)ccc(c34)C1=O)n(C)c(=O)n2C
14
CCc1cc2c(cc1CC)CC(NC[C@H](O)c1ccc(O)c3[nH]c(=O)ccc13)C2
7
CCCn1c(=O)c2[nH]c(C34CC5CC(CC3C5)C4)nc2n(CCC)c1=O
6
CCC(=O)O[C@]1(C(=O)SCF)[C@H](C)C[C@H]2[C@@H]3C[C@H](F)C4=CC(=O)C=C[C@]4(C)[C@@]3(F)[C@@H](O)C[C@@]21C [FLUTICASONE PROPIONATE]
4

Let us examine a further case.
Looking for the measured Population Fragmented Nuclei (%) of "CC(=O)c1cc(-c2cc(C(=O)NC3CC3)ccc2C)c2ncccn12" , can you help?
6

---

Parameter: Growth Rate. Scope: all listed entries.
# Tested on: Fibroblast
# ASSAY: Incucyte cell viability with human fibroblast; further: filed as whole numbers so only -1 and 0 and 1 occur
# Format: toxicity, cell-based
# RUN_CONDITIONS: 24 h, 10 µM, compound concentration 10 uM, replicate number 1, timepoint 24 hours

Some compounds with recorded Growth Rate:
CCCCN(CCCC)C(=O)CN1C[C@@H](c2ccc3c(c2)OCO3)[C@H](C(=O)O)[C@H]1c1ccc(OC)cc1
1
N#Cc1cnc(Nc2cc(NC[C@H]3CNCCO3)c(C(F)(F)F)cn2)cn1
0
COc1ccc(/C=C/CCCCOc2ccc(C(=O)c3cccc(C(=O)O)c3)cc2CCC(=O)O)cc1
0

Looking for the measured Growth Rate of "CCCCN(CCCC)C(=O)CN1C[C@@H](c2cc(OC)c3c(c2)OCO3)[C@H](C(=O)O)[C@H]1CC(C)(C)CCC.Cl" , can you help?
0

Looking for the measured Growth Rate of "CN(C)CCOc1ccc(-c2nc(-c3ccncc3)c(-c3ccc4c(c3)CC/C4=N\O)[nH]2)cc1" , can you help?
1

Looking for the measured Growth Rate of "CN(CCOc1ccc(C[C@H](Nc2ccccc2C(=O)c2ccccc2)C(=O)O)cc1)c1ccccn1.O" , can you help?
1

Looking for the measured Growth Rate of "C[C@H]1CCCN1Cc1nc2cc(NC(=O)c3ccc4cnccc4c3)ccc2[nH]1" , can you help?
0

---

# System: Fibroblast
# ASSAY: Multiplex assay against human fibroblast
# Assay type: toxicity, cell-based
# RUN_CONDITIONS: 12 h, 10 µM, compound concentration 10 uM, replicate 1
Returns the class for an entry based on its Population Apoptotic (%). Class ranges: bucket 1 (below 60%), bucket 2 (60% to below 70%), bucket 3 (70% or more)

Example results:
COc1cc2c(Nc3ccc(NC(=O)c4ccccc4)cc3)ncnc2cc1OCCCN1CCOCC1
bucket 3
CN(C)C/C=C/C(=O)Nc1cc2c(Nc3ccc(F)c(Cl)c3)ncnc2cc1O[C@H]1CCOC1.O=C(O)/C=C\C(=O)O.O=C(O)/C=C\C(=O)O [AFATINIB DIMALEATE]
bucket 1
CCn1c(-c2nonc2N)nc2cnc(Oc3cccc(NC(=O)c4ccc(OCCN5CCOCC5)cc4)c3)cc21 [GSK-269962A]
bucket 1
CC(C)N1CCC(C)(C)c2cc(C#Cc3ccc(C(=O)O)cc3)ccc21
bucket 3
CCCn1c(=O)c2[nH]c(C34CC5CC(CC3C5)C4)nc2n(CCC)c1=O
bucket 1
COc1ccc(NS(=O)(=O)c2sc3ccc(Cl)cc3c2C)cc1N1CCNCC1.Cl
bucket 3
Nc1nc2c(c(N3CCNCC3)n1)CCC1=C2[C@@H]2CCCC[C@@H]2O1
bucket 1
CN(C)CCOc1ccc(-c2nc(-c3ccncc3)c(-c3ccc4c(c3)CC/C4=N\O)[nH]2)cc1
bucket 3
CCOc1cc(N2CCC(O)CC2)ccc1Nc1ncc2c(n1)N(C1CCCC1)CCC(=O)N2C
bucket 3
CCC(=O)O[C@]1(C(=O)SCF)[C@H](C)C[C@H]2[C@@H]3C[C@H](F)C4=CC(=O)C=C[C@]4(C)[C@@]3(F)[C@@H](O)C[C@@]21C [FLUTICASONE PROPIONATE]
bucket 2

Which class is correct for the following compound? "CCOc1cc2ncc(C#N)c(Nc3ccc(OCc4cccc(F)c4)c(Cl)c3)c2cc1NC(=O)/C=C/CN(C)C"
bucket 3

Which class is correct for the following compound? "CNc1oc(-c2cccc3ccccc23)nc1C#N"
bucket 3

Which class is correct for the following compound? Cc1nc(Cc2cccc(C(F)(F)F)c2)sc1-c1ccc(C(N)=O)nc1 [TP-024n]
bucket 2

Which class is correct for the following compound? "Cl.Cl.NC1(c2ccc(-c3nc4ccn5c(=O)[nH]nc5c4cc3-c3ccccc3)cc2)CCC1"
bucket 1

Which class is correct for the following compound? "Nc1ccc(C(=O)Nc2cccc(-c3nc(N4CCOCC4)c4oc5ncccc5c4n3)c2)cn1"
bucket 1

Which class is correct for the following compound? "c1ccc2oc(-c3csc(C4CCN(Cc5nc6ncccc6[nH]5)CC4)n3)cc2c1"
bucket 2

Which class is correct for the following compound? "CC(C)(C)c1cnc(CSc2cnc(NC(=O)C3CCNCC3)s2)o1"
bucket 3
